- TESTED_ON: RUNX1 (UniProt Q01196)
- Sequence (Q01196 whole entry): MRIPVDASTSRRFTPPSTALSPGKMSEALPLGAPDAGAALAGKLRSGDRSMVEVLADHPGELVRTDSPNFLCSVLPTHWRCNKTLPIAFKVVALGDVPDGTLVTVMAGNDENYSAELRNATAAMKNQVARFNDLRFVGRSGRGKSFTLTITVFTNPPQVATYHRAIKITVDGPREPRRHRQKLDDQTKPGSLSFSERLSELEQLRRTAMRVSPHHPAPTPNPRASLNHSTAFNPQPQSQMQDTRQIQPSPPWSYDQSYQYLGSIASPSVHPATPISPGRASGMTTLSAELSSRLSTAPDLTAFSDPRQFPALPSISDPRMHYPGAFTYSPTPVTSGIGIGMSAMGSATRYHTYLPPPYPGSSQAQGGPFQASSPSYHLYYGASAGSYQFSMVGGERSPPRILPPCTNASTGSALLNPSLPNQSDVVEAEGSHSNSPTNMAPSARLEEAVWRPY
- EXPERIMENT_DESCRIPTION: RUNX1 binding intensity (PBM fluorescence), RUNX1 alone (arbitrary fluorescence units); higher = stronger binding;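 also: Full-length recombinant human RUNX1 bound to double-stranded 36-bp genomic probes on a high-density microarray, scored as Alexa488 fluorescence per spot via anti-RUNX1 antibody, median of four replicate spots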
- STUDY_CONDITIONS: RUNX1 concentration 2 nM; ETS1 concentration 0 nM
Binary call on RUNX1 binding intensity: TRUE from 1000 upward, FALSE beneath that.

Completed entries (count: 3):
CONSTRUCT_SEQUENCE | CATEGORY_LABEL
GGGAACTGGGGAAGGGGATGTGGTAACCAGAACCAC | FALSE
GCAAACAGCACATCCGGTGTGGTCGACGGGTCCTCC | FALSE
GTTTACAGGGGACAGGAAATGTGGGTGAACTCAGCC | FALSE

Challenge: // inclusive: RUNX1 binding intensity at least 1000? input: TGGAGTGAAGCGGCTTCCTTGCGGTTGTGTGCGTGT
Response given: TRUE

Challenge: Exam item: decide whether the reported RUNX1 binding intensity for TCCAGCCCCACCGGAAGTGGATGTGGTTAATCTAGT is at least 1000.
Response given: FALSE

Challenge: Assess whether reported RUNX1 binding intensity for TATGGGGCCGGAAGCCATTCACCACAAACACTGTGT sits at 1000 or higher.
Response given: FALSE
